These data points were gathered from patent US10800784B2.

I'd appreciate it if you could supply pIC50 values for the items below.
TARGET: human PDHK2 (hPDHK2) (Homo sapiens (Human))
MEASUREMENT_DESCRIPTION: Inhibitory action of PDHK2 activity in vitro (residual PDH activity after PDHK reaction)
COND: PDH/hPDHK2 complex solution, PDHK reaction at room temperature for 45 min, NADH absorbance at 340 nm; read-out: kPDK2 IC50
// field semantics: pIC50 = negative decimal log of concentration (mol/L)

Ask: Identify the reported pIC50 for the following entry. `C[C@H]1CN(C(=O)c2c3cc(F)c(F)cc3nn2C)Cc2cnc([C@@](C)(O)C(F)(F)F)n21`
Result: 7.96

Ask: Output pIC50 of `C[C@H]1CN(C(=O)c2cc(-c3ccc(C#N)cc3)ncc2F)Cc2cnc([C@@](C)(O)C(F)(F)F)n21`
Result: 8.22

Ask: Give me measured pIC50, please, for this compound: `C[C@H]1CN(C(=O)c2ccc(C3CC3)nc2)Cc2cnc([C@@](C)(O)C(F)(F)F)n21`
Result: 7.89
